# test.target: Follistatin (Homo sapiens) (UniProt P19883)
# Sequence (P19883 whole entry, looked up): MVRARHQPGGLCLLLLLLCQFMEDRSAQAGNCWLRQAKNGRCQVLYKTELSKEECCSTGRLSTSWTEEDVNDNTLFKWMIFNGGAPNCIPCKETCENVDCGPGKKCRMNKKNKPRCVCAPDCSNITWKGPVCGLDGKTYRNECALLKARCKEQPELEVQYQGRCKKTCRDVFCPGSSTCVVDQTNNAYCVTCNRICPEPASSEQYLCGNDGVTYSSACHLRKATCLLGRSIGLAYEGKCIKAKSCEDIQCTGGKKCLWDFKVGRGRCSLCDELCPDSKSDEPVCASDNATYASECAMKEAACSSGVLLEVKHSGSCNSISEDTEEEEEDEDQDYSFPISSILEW
# protocol.notes: follistatin binders on small-molecule microarrays, primary screen, biochemical, small-molecule microarray, 635/667 nm fluorescence (AID 1132)
# recorded.conditions: FST binding, 635 nm fluorescence, higher = more signal
property.measured: composite z-score

>>> recorded_measurement("COc1ccc([Si](C)(C)[C@@H]2[C@@H](CCn3cc([C@H](O)c4ccccc4)nn3)O[C@]3(C(=O)N(Cc4ccc(N5CCC5=O)cc4)c4ccccc43)[C@H]2C)cc1")
1.31
>>> recorded_measurement("CCCCN1CC=CC23O[C@@H]4/C=C\\CCC(C)OC(=O)C4[C@H]2C(=O)N(C(CO)C(C)C)[C@@H]3C1=O (stereo partly drawn)")
0.508
>>> recorded_measurement("COc1ccc([Si](C)(C)[C@@H]2[C@@H](CC(=O)N(CCO)Cc3ccccc3)O[C@]3(C(=O)N(Cc4cccc(N5CCOC5=O)c4)c4ccccc43)[C@H]2C)cc1")
0.583
>>> recorded_measurement("C=CCC(OC(C)=O)[C@@H]1[C@@H](N(Cc2cccc3ccccc23)C(=O)Cc2ccc(F)cc2)c2cc(OCCCO)ccc2N1C(=O)c1ccc2ccccc2n1 (stereo partly drawn)")
0.187
>>> recorded_measurement("COC(=O)[C@@]1(Cc2ccccc2)[C@H]2c3cc(C(=O)N(C)C)n(Cc4c(CO)[nH]cc(C)c4=O)c3C[C@H]2CN1C(=O)c1ccccc1")
-0.0699
>>> recorded_measurement("C[C@@H]1ON(c2ccc(C(=O)OC(C)(C)C)cc2)[C@H](c2ccc(O)cc2)[C@H]1C(=O)N1C(=O)OC[C@H]1Cc1ccccc1")
0.472
>>> recorded_measurement("COc1ccc([Si](C)(C)[C@H]2[C@H](CCn3cc([C@H](O)c4ccccc4)nn3)O[C@@]3(C(=O)N(Cc4ccc(N5C(=O)c6cccc7cccc5c67)cc4)c4ccccc43)[C@@H]2C)cc1")
-0.185
>>> recorded_measurement("CCCCC(O)C1C=CC2C(=O)N(c3ccccc3)C(=O)C2N1Nc1ccc(C(C)C)cc1 (stereo not drawn)")
0.967
>>> recorded_measurement("COCCOC(=O)N1C(=O)[C@@]2(c3cc(C#Cc4ccc(OC)cc4)ccc31)[C@H](c1ccccc1OCCO)N1[C@H](c3ccccc3)[C@H](c3ccccc3)OC(=O)[C@H]1[C@@H]2C(=O)N1CCCCCCC1")
1.51
>>> recorded_measurement("CN1C(=O)C2C=CC(C(O)c3ccccn3)N(N(c3ccccc3)c3ccccc3)C2C1=O (stereo not drawn)")
0.82
>>> recorded_measurement("COCCOC(=O)N1C(=O)[C@@]2(c3cc(C#Cc4ccc(OC)cc4)ccc31)[C@H](C(=O)Nc1nc3ccccc3s1)[C@H]1C(=O)O[C@H](c3ccccc3)[C@H](c3ccccc3)N1[C@@H]2c1ccc(O)cc1")
1.29
>>> recorded_measurement("COC(=O)c1c2oc(c1C(=O)OC)C(=O)N(C)Cc1cn(nn1)C[C@H](Cc1ccccc1)NC(=O)N[C@H](CO)CC2")
-0.0414
>>> recorded_measurement("[N-]=[N+]=NCc1ccccc1C[C@@]1(C(=O)N2CCOCC2)N=C(c2ccc(OCCCO)cc2)O[C@@H]1c1ccccc1")
0.734

----------
# protocol.notes: small-molecule binders of probe aNOTCH3, primary screen, biochemical, small-molecule microarray, 635/667 nm fluorescence (AID 1120);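 note: probe is a biotin-tagged antibody raised against NOTCH3 rather than NOTCH3 protein; score merges spot fluorescence near 667 nm with spot signal to noise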
# recorded.conditions: higher = more signal
Measured composite z-score of individual entries
property.measured: composite z-score

>>> recorded_measurement("CCCCCCc1nc(-c2cc(C)c(OC)c(C)c2)c(C)c2c1[Si](C(C)C)(C(C)C)OC2")
-0.165
>>> recorded_measurement("COC(=O)c1nc2oc1CC[C@@H](CO)NC(=O)N(C)Cc1cnnn1C[C@H](Cc1ccccc1)NC2=O")
-0.182
>>> recorded_measurement("CN1C(=O)C2C=CC(C(O)C#Cc3ccccc3)N(Nc3ccccc3)C2C1=O (centres undefined)")
0.405
>>> recorded_measurement("COC(=O)[C@H](Cc1ccccc1)N1CC(/C=C/C2CC2)=C[C@H]1[C@H](O)Cc1ccccc1")
-0.095
>>> recorded_measurement("O=C(NCCCCCNC(=O)/C(Cc1ccccc1)=N/O)OCc1ccccc1")
-0.165
>>> recorded_measurement("[N-]=[N+]=NCc1ccccc1[C@H]1OC(c2ccc(OCCCO)cc2)=N[C@@]1(CCS(=O)(=O)c1ccccc1)C(=O)N1CCCCC1")
0.268
>>> recorded_measurement("CN(C)CCCCNC(=O)[C@@H]1C[C@@H]2C(=O)N[C@@H](Cc3ccccc3)C(=O)N2[C@@H]1c1cccc(OCCO)c1")
-0.239
>>> recorded_measurement("COC(=O)c1cn(C[C@@H](Cc2ccccc2)NC(=O)N[C@H](CO)CCc2oc(C(C)=O)c(C(=O)OC)c2C(=O)OC)nn1")
0.134
>>> recorded_measurement("COc1cc2c(cc1OC)CN(C(=O)[C@@H]1[C@H]3C(=O)O[C@H](c4ccccc4)[C@H](c4ccccc4)N3[C@H](c3ccc(OCCO)cc3)[C@@]13C(=O)Nc1ccccc13)CC2")
0.131
>>> recorded_measurement("COC(=O)[C@@]1(Cc2ccc(OC)cc2)[C@H]2c3cc(C(=O)N4CCCC4)n(Cc4cccc5ccccc45)c3C[C@H]2CN1C(=O)c1ccccc1")
0.137
>>> recorded_measurement("CN(C)CCCNC(=O)[C@@]1(c2ccc([N+](=O)[O-])cc2)CC(=O)N(CC23CC4CC(CC(C4)C2)C3)[C@@H]1c1ccc(CO)cc1I")
0.095
>>> recorded_measurement("COc1ccc([Si](C)(C)[C@@H]2[C@@H](CC(=O)N(CCO)Cc3ccccc3)O[C@]3(C(=O)N(Cc4cccc(N5C(=O)c6cccc7cccc5c67)c4)c4ccccc43)[C@H]2C)cc1")
-0.124
>>> recorded_measurement("COCCOC(=O)N1C(=O)[C@@]2(c3ccccc31)[C@H](C(=O)N1CCN(c3ncccn3)CC1)[C@H]1C(=O)O[C@H](c3ccccc3)[C@H](c3ccccc3)N1[C@@H]2c1ccc(O)cc1")
-0.273
>>> recorded_measurement("COC(=O)[C@@]1(Cc2ccccc2)[C@H]2c3cc(C(=O)N(C)C)n(CCc4ccc(O)c(OC)c4)c3C[C@H]2CN1C(=O)c1ccccc1")
0.742

----------
# protocol.notes: Plasmodium falciparum growth inhibition, primary screen, strain 3D7, DAPI fluorescence, 100 nL (AID 1184);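 note: parasites grown inside human red blood cells in medium with human serum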
# recorded.conditions: P. falciparum 3D7 growth, 3 d, higher = more signal
Measured z-score of individual entries
property.measured: z-score

>>> recorded_measurement("CC(CO)N1C(=O)[C@@H]2[C@H]3C(=O)OCC=C[C@H]3OC23C=CCN(Cc2ccccc2)C(=O)[C@@H]13 (some centres undefined)")
-0.379
>>> recorded_measurement("CN1C(=O)C2C=CC(C(O)c3cccc(O)c3)N(Nc3ccccc3)C2C1=O (centres undefined)")
0.655
>>> recorded_measurement("Cc1cc(C)c(C(O)C2C=CC3C(=O)N(c4ccccc4)C(=O)C3N2Nc2ccc(C(C)C)cc2)c(C)c1 (centres undefined)")
-0.701
>>> recorded_measurement("C=CCC(OC(C)=O)[C@@H]1[C@@H](N(Cc2ccc(-c3cccc(C(F)(F)F)c3)o2)C(=O)c2ccc(C)cc2)c2cc(OCCCO)ccc2N1C(=O)c1ccc2ccccc2c1 (some centres undefined)")
-2.6

----------
# Tested on: Human papillomavirus type 1a E7 protein (residues 1-88)
# protocol.notes: HPV1a E7 small-molecule binders, primary screen, biochemical, small-molecule microarray, residues 1-88, 635 nm (AID 1129)
# recorded.conditions: small-molecule microarray binding, fluorescence 635 nm; higher = more signal
property.measured: composite z-score

>>> recorded_measurement("O=C1O[C@@H](c2ccccc2)[C@@H](c2ccccc2)N2[C@@H](c3ccc(O)cc3)[C@]3(C(=O)Nc4ccc(C#CC5=CCCCC5)cc43)[C@@H](C(=O)NC[C@H](O)c3ccccc3)[C@H]12")
1.19
>>> recorded_measurement("C=CCNC(=O)[C@@H]1[C@H]2C(=O)O[C@H](c3ccccc3)[C@H](c3ccccc3)N2[C@H](c2ccc(O)cc2)[C@@]12C(=O)N(C(=O)OCCOC)c1ccc(C#CC3(O)CCCCCC3)cc12")
-1.32
>>> recorded_measurement("[N-]=[N+]=NCc1ccccc1C[C@@]1(C(=O)NCc2ccccc2)N=C(c2ccc(OCCCO)cc2)O[C@@H]1c1ccccc1N=[N+]=[N-]")
1.18
>>> recorded_measurement("CC(C)(C)N1CC=CC23O[C@@H]4C=CCCOC(=O)C4[C@H]2C(=O)N(CCO)[C@@H]3C1=O (stereo partly specified)")
-0.991
>>> recorded_measurement("O=C(CS)NCCCCCNC(=O)[C@@H]1C[C@@H]2C(=O)N3CCC[C@H]3C(=O)N2[C@@H]1c1cccc(OCCO)c1")
1.21
>>> recorded_measurement("CC(C)[Si](C#CCCCC#N)(O[C@H](c1ccccc1)c1cn([C@H](CO)Cc2ccccc2)nn1)C(C)C")
1.12
